Conditions: human, serum;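 note: human clinical chemistry: moderate when serum ALT or AST reaches 6× upper normal limit or alkaline phosphatase 1.7×, value counts indexed literature references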
*1 amine or outer side, *2 acyl side, *3 side chain or, on linkers, in order; H or OH if unused. Where a SMILES comes first, the peptide text is derived from it. Bridges are numbered along the chain shown (N, C = ends). [ ]: non-standard residue; d: D form. The star is where a group is joined. ξ: configuration not given here. X2 = N=C1NCCC([C@H](N[*:1])C(=O)[*:2])N1; ΔAla(Z-3-ureido) = NC(=O)N/C=C(\N)C(=O)O; ξβ3hOrn = NCCCC(N)CC(=O)*; Dap = NC[C@H](N)C(=O)O
Hepatotoxicity (moderate) reference

{"columns": ["compound", "Hepatotoxicity (moderate)"],
 "data": [
  ["CCCCCOC(=O)Nc1nc(=O)n([C@@H]2O[C@H](C)[C@@H](O)[C@H]2O)cc1F", 1],
  ["CCN(CC)CCN1C(=O)CN=C(c2ccccc2F)c2cc(Cl)ccc21", 0],
  ["CN(C)C(=O)OC1N=C(c2ccccc2)c2cc(Cl)ccc2N(C)C1=O (stereo not drawn)", 0],
  ["Cc1cn([C@H]2C[C@H](N=[N+]=[N-])[C@@H](CO)O2)c(=O)[nH]c1=O", 26],
  ["NCCCC(O)(P(=O)(O)O)P(=O)(O)O", 2],
  ["CC(C)[C@](O)(C(=O)OCC1=CC[N+]2([O-])CC[C@@H](O)[C@@H]12)[C@H](C)O (stereo partly drawn) [INDICINE N-OXIDE]", 8],
  ["NCCS", 0],
  ["C#CC(O)(/C=C/Cl)CC (stereo not drawn)", 0],
  ["CC1=C(/C=C/C(C)=C/C=C/C(C)=C/CO)C(C)(C)CCC1.O=C(O)Cc1cc(I)c(Oc2ccc(O)c(I)c2)c(I)c1", 0],
  ["CSc1ccc2c(c1)N(CCC1CCCCN1C)c1ccccc1S2 (stereo not drawn)", 2],
  ["CC(C)NCC(O)COc1cccc2[nH]ccc12 (stereo not drawn)", 1],
  ["C[C@@H]1NC(=O)[C@@H](N)CNC(=O)[C@H](C2CCNC(=N)N2)NC(=O)/C(=C/NC(N)=O)NC(=O)[C@H](CNC(=O)CC(N)CCCN)NC1=O.N=C1NCCC([C@@H]2NC(=O)/C(=C/NC(N)=O)NC(=O)[C@H](CNC(=O)CC(N)CCCN)NC(=O)[C@H](CO)NC(=O)[C@@H](N)CNC2=O)N1 (stereo partly drawn) [CAPREOMYCIN] (H-[Dap]S[Dap](ξβ3hOrn)[ΔAla(Z-3-ureido)][X2]; lactam 1-C)", 3],
  ["NCCCC(N)(C(=O)O)C(F)F (stereo not drawn)", 1],
  ["CN(C)/N=N/c1[nH]cnc1C(N)=O", 12],
  ["O=C(NCC1CCCCN1)c1cc(OCC(F)(F)F)ccc1OCC(F)(F)F (stereo not drawn) [FLECAINIDE]", 3],
  ["O=C1CN2Cc3c(ccc(Cl)c3Cl)N=C2N1 [ANAGRELIDE]", 1],
  ["Cc1nnc(NS(=O)(=O)c2ccc(N)cc2)s1", 0],
  ["Cc1cnc(C(=O)NCCc2ccc(S(=O)(=O)NC(=O)NC3CCCCC3)cc2)cn1 [GLIPIZIDE]", 1],
  ["COc1cccc2c1C(=O)c1c(O)c3c(c(O)c1C2=O)C[C@@](O)(/C(C)=N/NC(=O)c1ccccc1)C[C@@H]3O[C@H]1C[C@H](N)[C@H](O)[C@H](C)O1", 1],
  ["CC(C)(Sc1cc(C(C)(C)C)c(O)c(C(C)(C)C)c1)Sc1cc(C(C)(C)C)c(O)c(C(C)(C)C)c1", 2],
  ["CCC1NC(=O)c2cc(S(N)(=O)=O)c(Cl)cc2N1 (stereo not drawn)", 0],
  ["Nc1ncnc2c1ncn2CCOCP(=O)(O)O", 2],
  ["CCC1(c2ccccc2)C(=O)NC(=O)NC1=O", 8],
  ["CCCCC(C)(O)C/C=C/[C@H]1[C@H](O)CC(=O)[C@@H]1CCCCCCC(=O)OC (stereo partly drawn)", 6],
  ["C[C@H](CCc1ccccc1)NC[C@H](O)c1ccc(O)c(C(N)=O)c1", 1],
  ["CC(C)(Oc1ccc(CCNC(=O)c2ccc(Cl)cc2)cc1)C(=O)O [BEZAFIBRATE]", 5],
  ["CCC(=O)[C@@]1(C)CC[C@H]2[C@@H]3CCC4=CC(=O)CCC4=C3CC[C@@]21C", 0],
  ["CCCCC1C(=O)N(c2ccccc2)N(c2ccc(O)cc2)C1=O (stereo not drawn) [OXYPHENBUTAZONE ANHYDROUS]", 3]
]}
